Experimental Target: TAF1-BD2 (Homo sapiens, UniProt P21675)
Procedure Summary: TAF1-BD2 TR-FRET Binding Assay
Stated Conditions: read-out: TAF1-BD2 HTRF IC50
Hi there, I'd appreciate the recorded pIC50 for every entry that follows.
Keep in mind that pIC50 stands for -log10 of concentration in molar terms.

Can you share its pIC50? I mean this molecule: Cc1[nH]c2c(=O)n(C)cc(C#CC(O)(c3ccccc3)C(F)(F)F)c2c1-c1nnc(CCN(C)C)o1 (stereo not shown) 7.06

Look up pIC50 for this molecule: Cc1[nH]c2c(=O)n(C)cc(C#CC(C)(O)CO)c2c1C(=O)OCC(C)C (stereo not shown) 7.16

What does the data say about its pIC50? Entry: CCOC(=O)c1c(C)[nH]c2c(=O)n(C)cc(C#CC3(O)CCc4cccnc43)c12 (single isomer, unassigned) [Example 99b] 7.07

Look up pIC50 for this molecule: C=CCCn1cc(C#C[C@@](C)(O)c2cc(C)on2)c2c(C(=O)OCc3ccccc3C)c(C)[nH]c2c1=O 6.61

Any idea what its pIC50 is? The molecule is Cc1[nH]c2c(=O)n(C)cc(C#CC(O)(c3ccccc3)C(F)(F)F)c2c1C(=O)OCCC#N (stereo not shown) 7.51

What measured pIC50 goes with CCOC(=O)c1c(C)[nH]c2c(=O)n(C)cc(C#CC(O)(c3cccc(-c4cccnc4)c3)C(F)(F)F)c12 (stereo not shown) ? 7.56

Query (molecule): Cc1cc([C@](C)(O)C#Cc2cn(C)c(=O)c3[nH]c(C)c(C(=O)OC(C)C)c23)no1 ; field requested: pIC50 7.15
